Listed here: items and their measured stoichiometry N.
measuredOn: recombinant wild-type cardiac troponin C (chicken)
runDescription: native gel or EMSA
assayReadout: stoichiometry N

{"substance": "cTnI(167C), cardiac troponin I single-cysteine mutant C81I/C98S/S167C labeled with AEDANS (from UniProt P48787 1-211) (natural protein)", "observedMeasurement": 1}
{"substance": "cTnI(188C), cardiac troponin I single-cysteine mutant C81I/C98S/E188C labeled with AEDANS (from UniProt P48787 1-211) (natural protein)", "observedMeasurement": 1}
{"substance": "cTnI(151C), cardiac troponin I single-cysteine mutant C81I/C98S/S151C labeled with AEDANS (from UniProt P48787 1-211) (natural protein)", "observedMeasurement": 1}
